Recorded values, source patent US20230293517A1.

experimental_endpoint: pKi
pKi is a log-scale quantity: -log10 of the concentration expressed in molar.

Short answer on human Adenosine A2a receptor (Homo sapiens (Human), UniProt P29274) for Cc1cc(-c2sc(NC(=O)N3CCOC[C@H]3CO)nc2-c2cccc(C#N)c2)cc(C)n1 [Example 6.88] , pKi: 8.72

The reported pKi value, human Adenosine A2a receptor (Homo sapiens (Human), UniProt P29274), for Cc1cc(-c2sc(NC(=O)N3C[C@@H]4OCCN(C)[C@H]4C3)nc2-c2cccc(C#N)c2)cc(C(F)F)n1 (racemic) [Example 6.109] reads 7.97

Per the reported human Adenosine A2a receptor (Homo sapiens (Human), UniProt P29274) data, Cc1cc(-c2sc(NC(=O)N3CCC4(CC3)COC4)nc2-c2cccc(C#N)c2)cc(C)n1 [Example 6.10] has pKi of 9.52

Log: human Adenosine A2a receptor (Homo sapiens (Human), UniProt P29274), compound Cc1cc(-c2sc(NC(=O)N3C[C@H]4CC[C@@H](C3)N(C)C4)nc2-c2cccc(C#N)c2)cc(C)n1 [Example 6.5] , pKi = 8.33

Per the reported human Adenosine A2a receptor (Homo sapiens (Human), UniProt P29274) data, CNC(=O)C1CCN(C(=O)Nc2nc(-c3cccc(C#N)c3)c(-c3cc(C)nc(C)c3)s2)CC1 [Example 6.28] has pKi of 8.32

GET /values?item= Cc1cc(-c2sc(NC(=O)N3CCC(C#N)(C#N)CC3)nc2-c2cccc(C#N)c2)cc(C)n1 [Example 4.32] &system= human Adenosine A2a receptor (Homo sapiens (Human), UniProt P29274) returns pKi: 9.82

I looked up CC(=O)N1CCN(C(=O)Nc2nc(-c3cccc(C#N)c3)c(-c3cc(C)nc(C)c3)s2)CC1 [Example 4.17] and its pKi for human Adenosine A2a receptor (Homo sapiens (Human), UniProt P29274) was 8.72

Value (pKi, human Adenosine A2a receptor (Homo sapiens (Human), UniProt P29274)) for record Cc1cc(-c2sc(NC(=O)N3CCC(C#N)CC3)nc2-c2cccc(C#N)c2)cc(CO)n1 [Example 9.6] = 9.29

Record Cc1cc(-c2sc(NC(=O)N3CC[C@H]3C(C)(C)O)nc2-c2cccc(C#N)c2)cc(C)n1 [Example 6.82] ; system human Adenosine A2a receptor (Homo sapiens (Human), UniProt P29274); pKi = 8.44

Hey, human Adenosine A2a receptor (Homo sapiens (Human), UniProt P29274) data for Cc1cc(-c2sc(NC(=O)N3CCC(S(C)(=O)=O)CC3)nc2-c2cccc(C#N)c2)cc(C)n1 [Example 6.95] : pKi came out at 8.98

# COC(C)c1cc(-c2sc(NC(=O)N3CC4(COC4)C3)nc2-c2cccc(C#N)c2)cc(C)n1 (centres unmarked) [Example 22] with human Adenosine A2a receptor (Homo sapiens (Human), UniProt P29274): pKi is 9.70

Hey, human Adenosine A2a receptor (Homo sapiens (Human), UniProt P29274) data for [2H]C([2H])([2H])c1cc(-c2sc(NC(=O)N3CC4(COC4)C3)nc2-c2cccc(C#N)c2)cc(C([2H])([2H])[2H])n1 [Example 6.104] : pKi came out at 9.70

Form field pKi for item Cc1cc(-c2sc(NC(=O)N3CC4(CCOC(=O)N4)C3)nc2-c2cccc(C#N)c2)cc(C)n1 [Example 6.34] on human Adenosine A2a receptor (Homo sapiens (Human), UniProt P29274): 9.19

Tested on human Adenosine A2a receptor (Homo sapiens (Human), UniProt P29274): Cc1cc(-c2sc(NC(=O)N3CCN[C@@H](C(=O)O)C3)nc2-c2cccc(C#N)c2)cc(Cl)n1 [Example 5] . Observed pKi: 8.24
